Origin of measurements: patent US20160002247A1

biological target: Human autotaxin enzyme (Homo sapiens); construct: purchased R&D System; test: Evaluation of autotaxin inhibitor, Method C (Test Example 3): 18:0 Lyso PC, choline assay, Resorufin fluorescence; type: biochemical; conditions: Assay Method C (Test Example 3), human autotaxin, 18:0 Lyso PC substrate; read-out: Inhibitory Activity (autotaxin enzyme inhibitory activity, IC50 class)
pIC50: −log10 of the molar value.
recorded-metric: pIC50

[Q] Given CCCCCn1c(N2CCC[C@H]2C(=O)NCCCCCN2CCOCC2)cc(=O)n2cc(-c3ccc(Cl)cc3)nc12 [Compound 654] , state its recorded pIC50.
[A] > 8.00

[Q] Given N#CCCCCn1c(NCc2ccc(C(=O)O)cc2)cc(=O)n2cc(-c3ccc(C(F)(F)F)cc3)nc12 [Compound 198] , state its recorded pIC50.
[A] 7.00 to 8.00

[Q] Given CCCCCn1c(-c2ccc(C(=O)N3CCS(=O)(=O)CC3)cc2)cc(=O)n2cc(-c3ccc(Cl)cc3)nc12 [Compound 492] , state its recorded pIC50.
[A] 7.00 to 8.00

[Q] Given CCCCCn1c(-c2ccc(C(=O)OCC)cc2)cc(=O)n2cc(-c3ccc(Cl)cc3)nc12 [Compound 453] , state its recorded pIC50.
[A] 6.00 to 7.00

[Q] Given CCCCCn1c(N2CCN(S(=O)(=O)N(C)C)CC2)cc(=O)n2cc(-c3ccc(Cl)cc3)nc12 [Compound 297] , state its recorded pIC50.
[A] 6.00 to 7.00

[Q] Given CCCCCn1c(-c2ccccn2)cc(=O)n2cc(-c3ccc(Cl)cc3)nc12 [Compound 528] , state its recorded pIC50.
[A] 6.00 to 7.00

[Q] Given CCCCCn1c(-c2cnc(C#N)nc2)cc(=O)n2cc(-c3ccc(Cl)cc3)nc12 [Compound 530] , state its recorded pIC50.
[A] 7.00 to 8.00

[Q] Given CCCCCn1c(-c2ccc(C(=O)N3CCN(C(C)=O)CC3)cc2)cc(=O)n2cc(-c3ccc(Cl)cc3)nc12 [Compound 474] , state its recorded pIC50.
[A] 7.00 to 8.00

[Q] Given CCCCCn1c(NC2(C(=O)NCC(=O)O)CC2)cc(=O)n2cc(-c3ccc(Cl)cc3)nc12 [Compound 637] , state its recorded pIC50.
[A] < 6.00

[Q] Given CCCCCn1c(N2CCC[C@H]2C(=O)N(C)CC(=O)O)cc(=O)n2cc(-c3ccc(Cl)cc3)nc12 [Compound 353] , state its recorded pIC50.
[A] > 8.00

[Q] Given CC(C)(C)[C@H](NC(=O)[C@@H]1C[C@@H](O)CN1c1cc(=O)n2cc(-c3ccc(Cl)cc3)nc2n1Cc1ccccc1)C(=O)O [Compound 752] , state its recorded pIC50.
[A] > 8.00

[Q] Given CCCCCn1c(N2CCC[C@H]2C(=O)NCC(=O)N(C)C)cc(=O)n2cc(-c3ccc(Cl)cc3)nc12 [Compound 699] , state its recorded pIC50.
[A] 6.00 to 7.00

[Q] Given CCCCCn1c(N2CCC[C@H]2C(=O)NCCCN)cc(=O)n2cc(-c3ccc(Cl)cc3)nc12 [Compound 352] , state its recorded pIC50.
[A] < 6.00

[Q] Given CN(C)CCNC(=O)c1ccc(-c2cc(=O)n3cc(-c4ccc(C(F)(F)F)cc4)nc3n2CCCCC#N)cc1 [Compound 377] , state its recorded pIC50.
[A] 7.00 to 8.00

[Q] Given CCCCCn1c(N2C[C@H](O)C[C@H]2C(=O)O)cc(=O)n2cc(-c3ccc(Cl)cc3)nc12 [Compound 589] , state its recorded pIC50.
[A] < 6.00

[Q] Given N#CCCCCn1c(N2CCC(C(=O)O)CC2)cc(=O)n2cc(-c3ccc(C#N)cc3)nc12 [Compound 284] , state its recorded pIC50.
[A] 7.00 to 8.00

[Q] Given CCCCCn1c(N2CCC[C@H]2C(=O)N[C@@H](CCc2ccccc2)C(=O)O)cc(=O)n2cc(-c3ccc(Cl)cc3)nc12 [Compound 735] , state its recorded pIC50.
[A] > 8.00

[Q] Given CCCCCn1c(N2CCC[C@H]2C(=O)N[C@H]2CCCCNC2=O)cc(=O)n2cc(-c3ccc(Cl)cc3)nc12 [Compound 707] , state its recorded pIC50.
[A] 6.00 to 7.00

[Q] Given CCCCCn1c(-c2ccc(NS(=O)(=O)N(C)C)cc2)cc(=O)n2cc(-c3ccc(Cl)cc3)nc12 [Compound 438] , state its recorded pIC50.
[A] 7.00 to 8.00

[Q] Given CCCCCn1c(OC2CCN(C(=O)CN3CCOCC3)CC2)cc(=O)n2cc(-c3ccc(Cl)cc3)nc12 [Compound 539] , state its recorded pIC50.
[A] 7.00 to 8.00

[Q] Given CCCCCn1c(N2C[C@H](O)C[C@H]2C(=O)NCCC(=O)O)cc(=O)n2cc(-c3ccc(Cl)cc3)nc12 [Compound 581] , state its recorded pIC50.
[A] > 8.00

[Q] Given CCn1c(N2CCC[C@H]2C(=O)NCC(=O)O)cc(=O)n2cc(-c3ccc(Cl)cc3)nc12 [Compound 756] , state its recorded pIC50.
[A] 6.00 to 7.00

[Q] Given O=C(O)c1ccc(-c2cc(=O)n3cc([C@H]4CC[C@H](C(F)(F)F)CC4)nc3n2CCCC(F)(F)F)cc1 [Compound 164] , state its recorded pIC50.
[A] 7.00 to 8.00

[Q] Given CCCCCn1c(-c2ccc(C(=O)NCCO)cc2)cc(=O)n2cc(-c3ccc(Cl)cc3)nc12 [Compound 390] , state its recorded pIC50.
[A] 7.00 to 8.00

[Q] Given Cc1cc(=O)n2cc(-c3ccc(Cl)cc3)nc2n1Cc1c(F)cccc1F [Compound 119] , state its recorded pIC50.
[A] 6.00 to 7.00

[Q] Given CCCCCn1c(-c2cc(NC(C)=O)cc(C(=O)O)c2)cc(=O)n2cc(-c3ccc(Cl)cc3)nc12 [Compound 427] , state its recorded pIC50.
[A] 7.00 to 8.00

[Q] Given CCCCCn1c(N2CCC[C@H]2C(=O)NCCCOC)cc(=O)n2cc(-c3ccc(Cl)cc3)nc12 [Compound 338] , state its recorded pIC50.
[A] 7.00 to 8.00

[Q] Given CCCCCn1c(N2CCC[C@H]2C(=O)N[C@H](C)C(N)=O)cc(=O)n2cc(-c3ccc(Cl)cc3)nc12 [Compound 709] , state its recorded pIC50.
[A] 6.00 to 7.00

[Q] Given Cn1c(N2C[C@H](O)C[C@H]2C(=O)N[C@H](C(=O)O)C(C)(C)C)cc(=O)n2cc(-c3ccc(Cl)cc3)nc12 [Compound 774] , state its recorded pIC50.
[A] 7.00 to 8.00
